The values you see were collected from the supplement of paper PMC9942255.

# System: Bacillus subtilis DB104 (SP-AmyQ fusion secretion)
# TEST METHOD NOTES: AmyQ secretion efficiency, weighted average sort bin (1 = best secretion, 10 = worst) (bin number (weighted average, 1-10)); higher = lower secretion efficiency
METRIC NAME: AmyQ secretion efficiency
One number for each entry.

Examples from the recorded data:
• MKKGIIRTGRQSFVLFFALSTGITGVQAAPA = 5.13
• MRGKSAVLLSLIMLIAGFLISFDFQM = 6.6
• MRSKKLWISLLFALTLIRKRKKRNMSAQAAGK = 9.84
• MKLAKRVSALTPSTTLAITYKAKEL = 6.96
• MKRIRIPMTLALGAALTIAPLVLTVFAALSSFASAEEN = 6.39
• MKRFLIGAGVAASGWFIADHQTHSQEM = 6.73

Could you tell me AmyQ secretion efficiency for each of these sequences? They are listed below.
1. MKSKWMSGLLLVAVGFSFTQVMVHSGET
2. MFKKHSRSLLIIFLLASAVLAKPIEAHTV
3. MKKWMITIAMLKRRRIALFVFISPLKSHKT
4. MPYLKRVLLLLVTGLFMSLFAVTATGSAQTG
5. MRPVFPLILSAVLFLSCFDDDDDTEASASKR
6. MFNRLFRVCFLAALIMAFTLPNSVYAQTP

Reply:
6.94
4.1
7.36
1.13
4.17
2.03

---

# Test system: Bacillus subtilis DB104 (SP-AmyQ fusion secretion)
# TEST METHOD NOTES: AmyQ secretion efficiency, weighted average sort bin (1 = best secretion, 10 = worst) (bin number (weighted average, 1-10)); higher = lower secretion efficiency
Classes (AmyQ secretion efficiency): lowest: < 4; middle: ≥ 4 and < 7; highest: ≥ 7

Check out these entries, answers already filled in.
* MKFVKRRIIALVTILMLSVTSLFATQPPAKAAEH | lowest
* MNLRKILLSSALSLGMLFSFAFVSAAPVLATSS | lowest
* MPINTFVMMCLAVTLVFGSMSFPTLTNSGGFKE | highest

Task item: Please report the category associated with MKKKLAAGLTASAIVGTTLVVTPAEWATI , nothing else.
Reply: highest

Task item: Exam item: assign MKKQIITATTAVVLGSTLFAGARSAQSI to the correct category.
Reply: lowest

Task item: Kindly identify the class of MTMLRKIIGWILLLCIIPLFAFTVIASWKEV .
Reply: middle

Task item: Consider MKKRRVLMAFIICLSLILSVLAAPPSGAKAESV . To which AmyQ secretion efficiency class does it belong?
Reply: lowest

Task item: Pick a category. Item: MGLGKKLSVAVAASFMSLSISLPGVQAEDD
Reply: middle

Task item: Which AmyQ secretion efficiency category applies to MTMLRKIIGWILLLCIIPLFAFTVIASVKEV here?
Reply: highest

Task item: For the record MKRTWNTTTVCLTALLSVLLVAGSVPFHAEAKKP , report the class its AmyQ secretion efficiency corresponds to.
Reply: lowest

---

# Test system: Bacillus subtilis DB104 (SP-AmyQ fusion secretion)
# TEST METHOD NOTES: AmyQ secretion efficiency, weighted average sort bin (1 = best secretion, 10 = worst) (bin number (weighted average, 1-10)); higher = lower secretion efficiency
Provide the recorded AmyQ secretion efficiency for the entries that follow.
Give bare numbers.

* MLKKKWMVGLLAGCLAAGGFSYNSFATEN | 5.59
* MKLWMRKTLVVLFTIVTFGLVSPPAALMGDKP | 4.12
* MGTFSTASILLLGILCSAAVFLIGAPSRALGAEV | 2.99
* MLKRTSFVSSLFIFMAVLLIILTLPSGQAHAQSA | 1.9
* MLKKKWMVGLLAGCLAAGGFSYNWFATEN | 6.53

Report AmyQ secretion efficiency for each item below.
1. MFNRLFRYCTLAALIMAFTLPNSVYAQKP
2. MFTWIYVVLVLSIAGIGGFSVHAASS
3. MKKAKRVFLSVVLVTTVFLVKQQESVAQAKQL
4. MTMLRKIIGWILLLCIIPLFAFTVIASGAED
5. MKRLLSTLLIGIMLLFFIFFTFAPSAFAKQD
6. MKKKQRAGLTASAIVGTTLVVTPAEAATI
7. MKNMSCKLRRRRKRFFSFLTIGPLAHAQNS
8. MRFTKKKTFLSVLGLAAVFPLTAQAEKA

Reply:
1: 1.93; 2: 5.5; 3: 3.28; 4: 6.01; 5: 1.97; 6: 6.45; 7: 7.37; 8: 3.64

Parameter requested: AmyQ secretion efficiency. Apply to each item below.
1. MKIRKILLSSALSFGMLISAVPALMAGT
2. MRKTSLLLAGLCTAAQMVFVTHASAEES
3. MKVLLSALLLLLFAFEPSHSGKKL
4. MFNRLFRVCFLAALIMAFTLPNSVYAKKR
5. MKKRLIAPMLLSAASLAFFAMSGSAQPAAY
6. MMMLRKIIGWILLLCIIPLFAFTVIASGKEV
7. MLKKIALTLCPAIVGSLLFFTAPASVHVS

Reply:
1: 6.44; 2: 2.32; 3: 6.88; 4: 3.37; 5: 5.92; 6: 5.45; 7: 6.13

// each listed sequence needs a value for AmyQ secretion efficiency
1. MTMLRKIIGWILLLCIIPLFAFTVIASGAPV
2. MKWMCSICCAAVLLAGGAIQAEAV
3. MKIRKILLSSALSFGMLISAVPVLAAGT
4. MFNRLFRVCFLAALIMAFTLPNSVYTQKP
5. MKRLTLVCSIVFILFILFYDKDEASAKTA
6. MKLKKRVSMFLVALTMCGGLFVTPAKAVST

Reply:
6.61
2.58
3.66
4.86
1.77
2.23

For the 2 sequences below, give their AmyQ secretion efficiency values.
1. MKKKLAAGLTASAIVGTTLVVTPNEAATI
2. MFKRGIQAFAGGIILATAVLAAVFYLTDEDQAAAV

Reply:
1: 6.96; 2: 5.98
